Below, each of the molecules is paired with its reported IC50 value.
# System Tested: KRAS G13D (Homo sapiens (Human), UniProt P01116+P62937, G13D)
# Sequence (P01116 other isoform, or with tags, fused parts or gaps G13D): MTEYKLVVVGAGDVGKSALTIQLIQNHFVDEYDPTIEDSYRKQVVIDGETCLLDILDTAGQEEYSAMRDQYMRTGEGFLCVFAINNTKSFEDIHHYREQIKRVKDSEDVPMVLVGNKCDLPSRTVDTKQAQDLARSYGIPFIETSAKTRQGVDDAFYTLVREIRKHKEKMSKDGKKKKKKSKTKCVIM
# Sequence (P62937 whole entry): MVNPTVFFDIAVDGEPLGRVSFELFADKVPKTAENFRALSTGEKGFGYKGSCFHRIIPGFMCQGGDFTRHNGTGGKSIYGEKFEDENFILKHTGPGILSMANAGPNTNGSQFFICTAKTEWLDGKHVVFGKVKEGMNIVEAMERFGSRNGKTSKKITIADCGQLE
# Procedure Summary: Ras-Raf disruption/FRET/MOA assay (BRAF RBD, Cyclophilin A)
# Assay type: biochemical
# Condition Summary: read-out: KRAS G13D FRET data IC50

Answered cases to consult:
CCn1c(-c2cccnc2[C@H](C)OC)c2c3cc(ccc31)-c1cc(O)cc(c1)C[C@H](NC(=O)[C@H](C(C)C)N(C)C(=O)[C@H]1CCN(C(=O)OC3CC3)C1)C(=O)N1CCC[C@H](N1)C(=O)OCC(C)(C)C2 [Compound A202] | 10 to 100 nM
CCn1c(-c2cccnc2[C@H](C)OC)c2c3cc(ccc31)-c1csc(n1)C[C@H](NC(=O)[C@H](C(C)C)N(C)C(=O)N1CC[C@@H]1CN)C(=O)N1CCC[C@H](N1)C(=O)OCC(C)(C)C2 [Compound A558] | 10 to 100 nM

Q: Request: IC50, test system KRAS G13D (Homo sapiens (Human), UniProt P01116+P62937, G13D), entry CCn1c(-c2cccnc2[C@H](C)OC)c2c3cc(ccc31)-c1csc(n1)C[C@H](NC(=O)[C@H](C(C)C)N(C)C(=O)N1CC3CC(C1)O3)C(=O)N1CCC[C@H](N1)C(=O)OCC(C)(C)C2 [Compound A301]
A: 1000 to 10000 nM

Q: Request: IC50, test system KRAS G13D (Homo sapiens (Human), UniProt P01116+P62937, G13D), entry CCn1c(-c2cccnc2[C@H](C)OC)c2c3cc(ccc31)-c1cc(O)cc(c1)C[C@H](NC(=O)[C@H](C(C)C)N(C)C(=O)[C@H]1C[C@@H]1O)C(=O)N1CCC[C@H](N1)C(=O)OCC(C)(C)C2 [Compound A323]
A: 10 to 100 nM

Q: Request: IC50, test system KRAS G13D (Homo sapiens (Human), UniProt P01116+P62937, G13D), entry CCn1c(-c2cccnc2[C@H](C)OC)c2c3cc(ccc31)-c1csc(n1)C[C@H](NC(=O)[C@H](C(C)C)N1CCCC1=O)C(=O)N1CCC[C@H](N1)C(=O)OCC(C)(C)C2 [Compound A212]
A: > 10000 nM

====

# System Tested: KRAS G12D (Homo sapiens (Human), UniProt P01116+P62937, G12D)
# Sequence (P01116 other isoform, or with tags, fused parts or gaps G12D): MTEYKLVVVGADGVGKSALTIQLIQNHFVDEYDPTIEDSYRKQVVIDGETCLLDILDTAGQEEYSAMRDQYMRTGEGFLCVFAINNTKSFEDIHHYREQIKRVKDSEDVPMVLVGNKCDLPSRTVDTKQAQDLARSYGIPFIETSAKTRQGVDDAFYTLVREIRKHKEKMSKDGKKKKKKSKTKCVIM
# Sequence (P62937 whole entry): as the sequence (P62937 whole entry) above
# Procedure Summary: Ras-Raf disruption/FRET/MOA assay (BRAF RBD, Cyclophilin A)
# Format: biochemical
# Condition Summary: read-out: KRAS G12D FRET IC50
Quantity Name: IC50

CCn1c(-c2cccnc2[C@H](C)OC)c2c3cc(ccc31)-c1cc(O)cc(c1)C[C@H](NC(=O)[C@H](C(C)C)N(C)C(=O)[C@@H]1CCN(C(=O)[C@]3(C)CCCN3C)C1)C(=O)N1CCC[C@H](N1)C(=O)OCC(C)(C)C2 | 10 to 100 nM
CCn1c(-c2cccnc2[C@H](C)OC)c2c3cc(ccc31)-c1csc(n1)C[C@H](NC(=O)[C@H](C(C)C)N(C)C(=O)N(C)CCc1ccncc1)C(=O)N1CCC[C@H](N1)C(=O)OCC(C)(C)C2 | 100 to 1000 nM

Q: Could you share which IC50 value was measured for CCn1c(-c2cccnc2[C@H](C)OC)c2c3cc(ccc31)-c1cc(O)cc(c1)C[C@H](NC(=O)[C@H](C(C)C)N(C)C(=O)O[C@H]1CCN(C)C1)C(=O)N1CCC[C@H](N1)C(=O)OCC(C)(C)C2 ?
A: 100 to 1000 nM

Q: Could you share which IC50 value was measured for CCn1c(-c2cccnc2[C@H](C)OC)c2c3cc(ccc31)-c1csc(n1)C[C@H](NC(=O)[C@H](C(C)C)N(C)C(=O)N1CC([C@@H](CO)OC)C1)C(=O)N1CCC[C@H](N1)C(=O)OCC(C)(C)C2 ?
A: 100 to 1000 nM

The reported measurements were obtained from patent US20250195521A1.
